The origin of these recorded values is ChEMBL document CHEMBL1138155.

Entries and their inhibition at 0.1 µM
Tested on: PC-3
Assay: Antimigratory activity against human PC3 prostate cancer cell line at 100 nM after 12h
Type: functional
Conditions: PC-3, 12 h
Measurement name: inhibition at 0.1 µM (%)

Structure smiles string	Measured on	Measurement name	Value observed
COc1ccc(OC)c([C@@H]2C[C@H]3[C@@H]4CC=C5C[C@@H](O[C@@H]6O[C@H](CO[C@H]7O[C@H](CO)[C@@H](O)[C@H](O)[C@H]7O)[C@@H](O)[C@H](O)[C@H]6O)CC[C@]5(C)[C@H]4CC[C@]3(C)[C@H]2[C@H](C)O[C@@H]2O[C@H](CO[C@H]3O[C@H](CO)[C@@H](O)[C@H](O)[C@H]3O)[C@@H](O)[C@H](O)[C@H]2O)c1	PC-3	inhibition at 0.1 µM	8
COc1ccc(OC)c([C@@H]2C[C@H]3[C@@H]4CC=C5C[C@@H](O[C@H]6O[C@H](CO[C@@H]7O[C@H](CO)[C@@H](O)[C@H](O)[C@H]7O)[C@@H](O)[C@H](O)[C@H]6O)CC[C@]5(C)[C@H]4CC[C@]3(C)[C@H]2C(C)=O)c1	PC-3	inhibition at 0.1 µM	11
COc1ccc(OC)c([C@@H]2C[C@H]3[C@@H]4CC=C5C[C@@H](O[C@@H]6O[C@H](CO)[C@H](O)[C@H](O)[C@H]6O)CC[C@]5(C)[C@H]4CC[C@]3(C)[C@H]2C(C)=O)c1	PC-3	inhibition at 0.1 µM	7
COc1ccc(OC)c([C@@H]2C[C@H]3[C@@H]4CC=C5C[C@@H](O[C@@H]6O[C@H](CO)[C@@H](O)[C@H](O)[C@H]6NC(C)=O)CC[C@]5(C)[C@H]4CC[C@]3(C)[C@H]2C(C)=O)c1	PC-3	inhibition at 0.1 µM	11
COc1ccc(OC)c([C@@H]2C[C@H]3[C@@H]4CC=C5C[C@@H](O[C@@H]6O[C@H](CO)[C@@H](O)[C@H](O)[C@H]6O)CC[C@]5(C)[C@H]4CC[C@]3(C)[C@H]2C(C)=O)c1	PC-3	inhibition at 0.1 µM	2
COc1ccc(OC)c([C@@H]2C[C@H]3[C@@H]4CC=C5C[C@@H](O[C@@H]6O[C@H](CO)[C@@H](O[C@@H]7O[C@H](CO)[C@@H](O)[C@H](O)[C@H]7O)[C@H](O)[C@H]6O)CC[C@]5(C)[C@H]4CC[C@]3(C)[C@H]2C(C)=O)c1	PC-3	inhibition at 0.1 µM	13

---

Test system: MCF7
Experiment: Cytotoxicity against human MCF7 breast cancer cell line
Format: functional, cell-based
pIC50: −log10 of the molar value.
Measurement name: pIC50

Structure smiles string	Value observed
COc1ccc(OC)c([C@@H]2C[C@H]3[C@@H]4CC=C5C[C@@H](O)CC[C@]5(C)[C@H]4CC[C@]3(C)[C@H]2C(C)=O)c1	< 5.00
COc1ccc(OC)c([C@@H]2C[C@H]3[C@@H]4CC=C5C[C@@H](O)CC[C@]5(C)[C@H]4CC[C@]3(C)[C@H]2[C@H](C)O)c1	< 5.00
COc1ccc(OC)c([C@@H]2C[C@H]3[C@@H]4CC=C5C[C@@H](O[C@@H]6O[C@H](CO)[C@@H](O[C@@H]7O[C@H](CO)[C@@H](O)[C@H](O)[C@H]7O)[C@H](O)[C@H]6O)CC[C@]5(C)[C@H]4CC[C@]3(C)[C@H]2[C@H](C)O[C@@H]2O[C@H](CO)[C@@H](O[C@@H]3O[C@H](CO)[C@@H](O)[C@H](O)[C@H]3O)[C@H](O)[C@H]2O)c1	< 5.00

---

Test system: PC-3
Experiment: Antimigratory activity against human PC3 prostate cancer cell line at 100 nM after 12h
Type: functional
Details: PC-3, 12 h
Item-by-item account of inhibition at 0.1 µM

Structure smiles string	inhibition at 0.1 µM [%]
COc1ccc(OC)c([C@@H]2C[C@H]3[C@@H]4CC=C5C[C@@H](O[C@H]6O[C@H](CO)[C@@H](O[C@@H]7O[C@H](CO)[C@H](O)[C@H](O)[C@H]7O)[C@H](O)[C@H]6O)CC[C@]5(C)[C@H]4CC[C@]3(C)[C@H]2C(C)=O)c1	-51
COc1ccc(OC)c([C@@H]2C[C@H]3[C@@H]4CC=C5C[C@@H](O[C@H]6O[C@H](CO)[C@@H](O[C@H]7O[C@H](CO)[C@@H](O)[C@H](O)[C@H]7O)[C@H](O)[C@H]6O)CC[C@]5(C)[C@H]4CC[C@]3(C)[C@H]2C(C)=O)c1	-5
COc1ccc(OC)c([C@@H]2C[C@H]3[C@@H]4CC=C5C[C@@H](O[C@@H]6O[C@H](CO)[C@@H](O[C@@H]7O[C@H](CO)[C@@H](O)[C@H](O)[C@H]7O)[C@H](O)[C@H]6O)CC[C@]5(C)[C@H]4CC[C@]3(C)[C@H]2[C@H](C)O[C@@H]2O[C@H](CO)[C@@H](O[C@@H]3O[C@H](CO)[C@@H](O)[C@H](O)[C@H]3O)[C@H](O)[C@H]2O)c1	9

---

inhibition at 0.1 µM overview
Test system: A549
Assay: Antimigratory activity against human A549 NSCLC cell line at 100 nM after 22h
Assay type: functional
Conditions: A549, 22 h
Measurement name: inhibition at 0.1 µM (%)

Structure smiles string	Value observed
COc1ccc(OC)c([C@@H]2C[C@H]3[C@@H]4CC=C5C[C@@H](O[C@H]6O[C@@H](C)[C@@H](O)[C@@H](O)[C@@H]6O)CC[C@]5(C)[C@H]4CC[C@]3(C)[C@H]2[C@H](C)O[C@H]2O[C@@H](C)[C@@H](O)[C@@H](O)[C@@H]2O)c1	-4
COc1ccc(OC)c([C@@H]2C[C@H]3[C@@H]4CC=C5C[C@@H](O[C@@H]6O[C@H](CO[C@H]7O[C@H](CO)[C@@H](O)[C@H](O)[C@H]7O)[C@@H](O)[C@H](O)[C@H]6O)CC[C@]5(C)[C@H]4CC[C@]3(C)[C@H]2C(C)=O)c1	-40
COc1ccc(OC)c([C@@H]2C[C@H]3[C@@H]4CC=C5C[C@@H](O[C@@H]6O[C@H](CO)[C@H](O)[C@H](O)[C@H]6O)CC[C@]5(C)[C@H]4CC[C@]3(C)[C@H]2C(C)=O)c1	4
COc1ccc(OC)c([C@@H]2C[C@H]3[C@@H]4CC=C5C[C@@H](O[C@@H]6O[C@H](CO)[C@@H](O[C@@H]7O[C@H](CO)[C@@H](O)[C@H](O)[C@H]7O)[C@H](O)[C@H]6O)CC[C@]5(C)[C@H]4CC[C@]3(C)[C@H]2C(C)=O)c1	-34
COc1ccc(OC)c([C@@H]2C[C@H]3[C@@H]4CC=C5C[C@@H](O[C@@H]6O[C@H](CO)[C@@H](O[C@@H]7O[C@H](CO)[C@@H](O)[C@H](O)[C@H]7O)[C@H](O)[C@H]6O)CC[C@]5(C)[C@H]4CC[C@]3(C)[C@H]2[C@H](C)O[C@@H]2O[C@H](CO)[C@@H](O[C@@H]3O[C@H](CO)[C@@H](O)[C@H](O)[C@H]3O)[C@H](O)[C@H]2O)c1	3
COc1ccc(OC)c([C@@H]2C[C@H]3[C@@H]4CC=C5C[C@@H](O)CC[C@]5(C)[C@H]4CC[C@]3(C)[C@H]2C(C)=O)c1	6
COc1ccc(OC)c([C@@H]2C[C@H]3[C@@H]4CC=C5C[C@@H](O[C@@H]6O[C@H](CO[C@H]7O[C@H](CO)[C@@H](O)[C@H](O)[C@H]7O)[C@@H](O)[C@H](O)[C@H]6O)CC[C@]5(C)[C@H]4CC[C@]3(C)[C@H]2[C@H](C)O[C@@H]2O[C@H](CO[C@H]3O[C@H](CO)[C@@H](O)[C@H](O)[C@H]3O)[C@@H](O)[C@H](O)[C@H]2O)c1	0

---

Test system: PC-3
Assay: Antimigratory activity against human PC3 prostate cancer cell line at 100 nM after 12h
Type: functional
Conditions: PC-3, 12 h

Structure smiles string	inhibition at 0.1 µM
COc1ccc(OC)c([C@@H]2C[C@H]3[C@@H]4CC=C5C[C@@H](O[C@H]6O[C@H](CO)[C@@H](O[C@@H]7O[C@H](CO)[C@H](O)[C@H](O)[C@H]7O)[C@H](O)[C@H]6O)CC[C@]5(C)[C@H]4CC[C@]3(C)[C@H]2[C@H](C)O[C@H]2O[C@H](CO)[C@@H](O[C@@H]3O[C@H](CO)[C@H](O)[C@H](O)[C@H]3O)[C@H](O)[C@H]2O)c1	14%
COc1ccc(OC)c([C@@H]2C[C@H]3[C@@H]4CC=C5C[C@@H](O[C@@H]6O[C@H](CO)[C@@H](O)[C@H](O)[C@@H]6O)CC[C@]5(C)[C@H]4CC[C@]3(C)[C@H]2C(C)=O)c1	2%
